- test summary: in vitro
- condition info: SD, HW or BN, rat, plasma
Consider the following compounds; for each one, report its fraction unbound at 5 h.
Answers are plain numbers.

Some solved entries appear below for comparison.
[[record]]
compound = "CC(C)(C)NC(=O)NCCN1CCCC(NC(=O)c2cc(Cl)cc(Cl)c2)C1 (stereo not drawn)"
endpoint_value = 0.0391

[[record]]
compound = "CCCN1CCCC[C@H]1C(=O)Nc1c(C)cccc1C [ROPIVACAINE]"
endpoint_value = 0.511

[[record]]
compound = "C[C@H](CN(C(=O)c1ccc(C#N)cc1)c1ccccn1)N1CCN(c2cccc3c2OCCO3)CC1 [LECOZOTAN]"
endpoint_value = 0.179

[[record]]
compound = "c1ccc([C@H]([C@@H](c2ccccc2)N2CCCCC2)N2CCCCC2)cc1"
endpoint_value = 0.365

[[record]]
compound = "CC(C)c1noc(C2CCN(c3ncnc(Nc4ccc(S(C)(=O)=O)cc4F)c3[N+](=O)[O-])CC2)n1"
endpoint_value = 0.016

[[record]]
compound = "C[C@]12CCC(=O)C=C1C=C[C@@H]1[C@@H]2CC[C@@]2(C)[C@H]1CC[C@@]21CCC(=O)O1 [CANRENONE]"
endpoint_value = 0.0383

[[record]]
compound = "COCCNCC(=O)NC12CC3CC(CC(C3)C1)C2"
endpoint_value = 0.483

[[record]]
compound = "Cc1ccc(S(=O)(=O)Nc2c(C(=O)N[C@@H](C)C(C)(C)C)c(C)nn2C2CCC2)cc1"
endpoint_value = 0.0209


Hi there! I need fraction unbound at 5 h for each item below, if you can.
1. Clc1ccc2c(c1)C(N1CCNCC1)=Nc1ccccc1O2 [AMOXAPINE]
2. CN(C)CCCN1c2ccccc2CCc2ccccc21 [IMIPRAMINE]

1: 0.101; 2: 0.173

// for each compound below, give its fraction unbound at 5 h
1. O=C(O)CCc1ccc(NCc2cccc(Oc3ccccc3)c2)cc1 [GW9508]
2. CCn1nc(C)c(C(=O)N[C@@H](C)C(C)(C)C)c1NS(=O)(=O)c1ccc(C)cc1
3. CCCCCCC(=O)CCCCCC/C=C/C[C@@H](O)[C@H](O)[C@@](N)(CO)C(=O)O [MYRIOCIN]
4. OCc1cc(C(O)CNCCCCCCOCCCCc2ccccc2)ccc1O (stereo not drawn) [SALMETEROL]
5. Cc1cnc(-c2c(F)ccc(F)c2CCNC(=O)c2ccc(COCC(F)(F)F)nc2)cn1
6. Cc1onc(-c2c(Cl)cccc2Cl)c1CC(=O)NCc1ccc(OCC(F)(F)F)nc1

1: 0.0052; 2: 0.0477; 3: 0.028; 4: 0.0736; 5: 0.28; 6: 0.0457

###

I'd appreciate it if you could supply fraction unbound at 5 h values for the items below.
- test summary: in vitro
- condition info: Beagle, dog, plasma

Some compounds with known fraction unbound at 5 h results, for comparison:
[[record]]
smi = "Cc1ncc2n1-c1ccc(Cl)cc1C(c1ccccc1F)=NC2"
endpoint_value = 0.02

[[record]]
smi = "O=C(CN1CCN(Cc2ccn(-c3ccc(C(F)(F)F)cn3)c2)CC1)NC(c1ccc(F)cc1)c1ccc(F)cc1"
endpoint_value = 0.0006

[[record]]
smi = "N#CC[C@H](C1CCCC1)n1cc(-c2ncnc3[nH]ccc23)cn1"
endpoint_value = 0.166

[[record]]
smi = "CCCc1nc2c(C)cc(-c3nc4ccccc4n3C)cc2n1Cc1ccc(-c2ccccc2C(=O)O)cc1"
endpoint_value = 0.0175

[[record]]
smi = "C[N+]1(C)[C@@H]2C[C@@H](OC(=O)C(O)(c3cccs3)c3cccs3)C[C@H]1[C@@H]1O[C@@H]12"
endpoint_value = 0.807


I'm hoping you can list fraction unbound at 5 h for every compound here, please.
1. C[C@H](CO)Nc1nc(SCc2cccc(Cl)c2F)nc2[nH]c(=O)sc12
2. CCCc1nn(C)c2c(=O)[nH]c(-c3cc(S(=O)(=O)N4CCN(C)CC4)ccc3OCC)nc12
3. CN(C)S(=O)(=O)NC(=O)CCCc1c(-c2ccc(F)cc2)[nH]c2ccc(C#N)cc12
4. C[C@H](Nc1ncc(Cl)c(Nc2cc(C3CC3)[nH]n2)n1)c1ccc(F)cn1
5. CCCN(c1cccnc1)P(=O)(c1ccccc1)c1ccccc1

1: 0.0005; 2: 0.176; 3: 0.0196; 4: 0.11; 5: 0.176
